FYI, the data here is from patent US20240270744A1.

Molecular target: human GABAA α2β2γ1 receptor (Homo sapiens (Human), UniProt P47869+Q8N1C3)
Experiment: Radioligand binding assay, competition for [3H]RO7239181, γ1-containing GABAA subtypes
Conditions: Ki h-GABAA α2β2γ1, Table 2; [3H]RO7239181 displacement
Description: The affinity of compounds at GABAA γ1 subunit-containing receptors was measured by competition for [^3H]RO7239181 (67.3 Ci/mmol; Roche) binding to membranes from HEK293F cells (ThermoFisher R79007) expressing human (transiently transfected) receptors of composition α5β2γ1, α2β2γ1, α1β2γ1. […]
Hi! Could you tag entries with Ki below 30 nM as Met, and those at or above as Not met? Much appreciated.

Q) Ki strictly < 30 nM for this compound? Cc1nnc2n1-c1cnc(C(F)(F)F)c(Cl)c1C(c1c(F)cccc1F)=N[C@H]2C
A) Not met

Q) Ki strictly < 30 nM for this compound? C[C@@H]1N=C(c2c(F)cccc2F)c2c(cnc(C(F)(F)F)c2Cl)-n2nc(C(=O)N3CC(O)C3)nc21
A) Met

Q) Ki strictly < 30 nM for this compound? C[C@@H]1N=C(c2c(F)cccc2F)c2c(cnc(C(F)(F)F)c2Cl)-n2nc(N3CCCC3=O)nc21
A) Not met

Q) Ki strictly < 30 nM for this compound? Cc1ncc2c(c1Cl)C(c1c(F)cccc1F)=N[C@@H](C)c1nnc(C)n1-2
A) Not met

Q) Ki strictly < 30 nM for this compound? C[C@@H]1N=C(c2c(F)cccc2F)c2c(cnc(C(F)(F)F)c2Cl)-n2nc(C(=O)NCC3(O)CC3)nc21
A) Not met

Q) Ki strictly < 30 nM for this compound? C[C@@H]1N=C(c2c(F)cccc2F)c2c(cnc(C(F)(F)F)c2Cl)-n2nc(C(=O)N3CCS(=O)(=O)CC3)nc21
A) Met

Q) Ki strictly < 30 nM for this compound? C[C@@H]1N=C(c2c(F)cccc2F)c2c(cnc(C(F)(F)F)c2Cl)-n2cc(C(=O)NCCO)nc21
A) Met

====

Give LogSel for every item shown.
target: human GABAA α2β2γ1 receptor (Homo sapiens (Human), UniProt P47869+Q8N1C3); experiment: Radioligand binding assay, competition for [3H]RO7239181, γ1-containing GABAA subtypes; conditions: Table 1; Log of the γ2/γ1 Ki ratio
Lab note: jot the number down without any unit.

Q) Data request, read-out LogSel, for C[C@@H]1N=C(c2c(F)cccc2F)c2c(cnc(C(F)(F)F)c2Cl)-n2nc(C(=O)N3CC(C)(O)C3)nc21 [Example 10]
A) 2.51

Q) Data request, read-out LogSel, for Cc1nnc2n1-c1cnc(Cl)c(Cl)c1C(c1c(F)cccc1F)=N[C@H]2C [Example 1]
A) 1.53

Q) Data request, read-out LogSel, for C[C@@H]1N=C(c2c(F)cccc2F)c2c(cnc(C(F)(F)F)c2Cl)-n2nc(C(=O)N[C@H]3C[C@H](O)C3)nc21 [Example 24]
A) 2.06

Q) Data request, read-out LogSel, for C[C@@H]1N=C(c2c(F)cccc2F)c2c(cnc(C(F)(F)F)c2Cl)-n2nc(C(=O)N3CCS(=O)(=O)CC3)nc21 [Example 11]
A) 2.91

Q) Data request, read-out LogSel, for Cc1cn2c(n1)[C@H](C)N=C(c1c(F)cccc1F)c1c-2cnc(C(F)(F)F)c1Cl [Example 18]
A) 1.88

Q) Data request, read-out LogSel, for COC1CN(C(=O)c2nc3n(n2)-c2cnc(C(F)(F)F)c(Cl)c2C(c2c(F)cccc2F)=N[C@H]3C)C1 [Example 9]
A) 2.23

Q) Data request, read-out LogSel, for C[C@@H]1N=C(c2c(F)cccc2F)c2c(cnc(C(F)(F)F)c2Cl)-n2nc(C(=O)NCC(C)(C)O)nc21 [Example 21]
A) 2.19

Q) Data request, read-out LogSel, for C[C@@H]1N=C(c2c(F)cccc2F)c2c(cnc(C(F)(F)F)c2Cl)-n2c1nc1c2CCC1 [Example 20]
A) 1.96

Q) Data request, read-out LogSel, for Cc1nc2n(n1)-c1cnc(C(F)(F)F)c(Cl)c1C(c1c(F)cccc1F)=N[C@H]2C [Example 5]
A) 2.07

Q) Data request, read-out LogSel, for Cc1nnc2n1-c1cnc(C(F)(F)F)c(Cl)c1C(c1c(F)cccc1F)=N[C@H]2C [Example 4]
A) 2.05

Q) Data request, read-out LogSel, for C[C@@H]1N=C(c2c(F)cccc2F)c2c(cnc(C(F)(F)F)c2Cl)-n2nc(C(=O)N[C@H]3C[C@@H](O)C3)nc21 [Example 23]
A) 2.16

Q) Data request, read-out LogSel, for C[C@@H]1N=C(c2c(F)cccc2F)c2c(cnc(C(F)(F)F)c2Cl)-n2nc(N3CCCC3=O)nc21 [Example 13]
A) 2.22

Q) Data request, read-out LogSel, for C[C@@H]1N=C(c2c(F)cccc2F)c2c(cnc(C(F)(F)F)c2Cl)-n2nc(C(=O)NCCO)nc21 [Example 15]
A) 2.44

Q) Data request, read-out LogSel, for C[C@@H]1N=C(c2c(F)cccc2F)c2c(cnc(C(F)(F)F)c2Cl)-n2cc(C(=O)NCCO)nc21 [Example 19]
A) 2.38

Q) Data request, read-out LogSel, for C[C@@H]1N=C(c2c(F)cccc2F)c2c(cnc(C(F)(F)F)c2Cl)-n2nc(C(=O)N3CC(O)C3)nc21 [Example 8]
A) 2.41
